- Measurement Description: NCI Yeast Anticancer Drug Screen. Data for the mlh1 rad18 strain (AID 175)
- Condition Parameters: S. cerevisiae mlh1 rad18 strain growth inhibition; at 50.0 µM (retest, dose inferred, filed as 5.0); stronger effect = higher value
Compounds without any hit were thinned out: in the full panel of roughly 79,000, 15% have a hit.
Tick 1 if growth inhibition is 90% or greater. Tick -1 if growth inhibition is less than 90%.

- Molecule: "[O-]/[N+](O)=C\\c1ccccn1"
  Discrete Label: -1
- Molecule: "Cc1ccccc1C(CC(=O)O)C(C)c1ccccc1 (configuration not stated)"
  Discrete Label: -1
- Molecule: "CCCCCCCCCCCCCCCC[N+](C)(C)CC(=O)O"
  Discrete Label: 1
- Molecule: "CCOC(=O)Cn1c(=O)c2nc(SC)sc2n(-c2ccc(C)cc2)c1=S"
  Discrete Label: -1
- Molecule: "O=C(N/C(=C\\c1ccc(Cl)cc1)c1nc2ccccc2s1)c1ccccc1"
  Discrete Label: 1
- Molecule: "C=Cc1cc(O)cc2c1-c1ccc(O)c(C)c1CC2"
  Discrete Label: 1
- Molecule: "COc1cccc2c1C(=O)c1c(O)c3c(c(O)c1C2=O)C[C@@](O)(/C(C)=N\\NC(N)=O)C[C@@H]3OC1CC(N)C(O)C(C)O1 (some centres not stated)"
  Discrete Label: -1
- Molecule: "COc1ccc(C(=O)Nc2ccccc2OC)cc1"
  Discrete Label: -1
- Molecule: "CN1CC[C@@H](c2ccccc2)[C@@H](O)C1"
  Discrete Label: -1
- Molecule: "O=C(OCC1OC(OCC(OC(=O)c2ccccc2)C(OC(=O)c2ccccc2)C(OC(=O)c2ccccc2)c2cnn(-c3ccccc3)n2)C(OC(=O)c2ccccc2)C(OC(=O)c2ccccc2)C1OC(=O)c1ccccc1)c1ccccc1 (configuration not stated)"
  Discrete Label: -1
- Molecule: "O=C1OC(c2ccccc2)(c2ccccc2)Cc2ccccc21"
  Discrete Label: -1
- Molecule: "NC(=S)C1CCC(C2CCCCC2)CC1 (configuration not stated)"
  Discrete Label: 1
- Molecule: "CCCCCCCC/C=C\\CCCCCCCC(=O)NCCN(C)C"
  Discrete Label: 1
- Molecule: "CCOC1=C(c2ccccc2)Sc2ccc(C)cc2C1c1ccc(C)cc1 (configuration not stated)"
  Discrete Label: -1
- Molecule: "CC/C(=C(\\CC)c1ccc(O)c(CN(CCO)CCO)c1)c1ccc(O)cc1"
  Discrete Label: -1
- Molecule: "Cc1[nH]c2ccccc2c1C1=CC2(C)Nc3ccccc3C2C(C)(C)C1 (configuration not stated)"
  Discrete Label: -1
- Molecule: "N#CC(C(=O)C(N)=O)c1ccc(Cl)cc1Cl (configuration not stated)"
  Discrete Label: -1
- Molecule: "CCCCC(O)(c1ccccc1)C(O)(c1ccccc1)c1c(F)c(F)c(F)c(F)c1F (configuration not stated)"
  Discrete Label: 1
- Molecule: "Cn1c(=O)c2c(ncn2CCCCOc2ccc3c(c2)[n+]([O-])nc(N)[n+]3[O-])n(C)c1=O"
  Discrete Label: -1
- Molecule: "COc1ccc(Cc2nc3ccc(Cl)cc3[nH]2)cc1"
  Discrete Label: -1
- Molecule: "O=Cc1ccc(O)cc1O"
  Discrete Label: -1

* * *

Each record here notes measured growth inhibition.
- Measurement Description: NCI Yeast Anticancer Drug Screen. Data for the rad50 strain (AID 155);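 further: 0% = growth of vehicle-only cultures of the same strain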
- Condition Parameters: S. cerevisiae rad50 strain growth inhibition; at 50.0 µM (retest, dose inferred, filed as 5.0); stronger effect = higher value
The panel holds about 79,000 compounds, 15% with a hit somewhere; the sample as a whole holds those more often.

- Molecule: "CCOC(=O)Cc1csc2[n+]1C(=O)/C(=C\\c1cccc(Cl)c1Cl)S2"
  Uom: "%"
  growth inhibition: 20
- Molecule: "COc1ccc2c(Cc3ccccc3)c3[n+](cc2c1OC)CCc1cc2c(cc1-3)OCO2"
  Uom: "%"
  growth inhibition: 98
- Molecule: "O=C(OC1=C(Br)C(=O)c2ccccc2C1=O)c1ccccc1"
  Uom: "%"
  growth inhibition: 99
- Molecule: "Cc1cc([N+](=O)[O-])cc(C)[n+]1[O-]"
  Uom: "%"
  growth inhibition: 67
- Molecule: "O=C(Cl)c1ccc(N=Nc2ccccc2)cc1"
  Uom: "%"
  growth inhibition: 31
- Molecule: "CC(C)(C)OC(=O)C(N(Cc1ccccc1)Cc1ccccc1)N(Cc1ccccc1)Cc1ccccc1"
  Uom: "%"
  growth inhibition: 14
- Molecule: "CC(C)C(C)(C(=O)O)C(C)C"
  Uom: "%"
  growth inhibition: 1
- Molecule: "O=C1OC(=O)C2C1C1C(c3ccccc3)=C(c3ccccc3)C2(O)C2C(=O)OC(=O)C12 (stereo not drawn)"
  Uom: "%"
  growth inhibition: 25
- Molecule: "CNC(C)C(=O)c1ccc2ccc3ccccc3c2c1 (stereo not drawn)"
  Uom: "%"
  growth inhibition: 24
- Molecule: "O=C(C(Cl)Cl)N(O)c1ccccc1OCc1ccccc1"
  Uom: "%"
  growth inhibition: 52
- Molecule: "COc1ccc(I)c(C=NC2CCCCC2)c1C"
  Uom: "%"
  growth inhibition: 94
- Molecule: "O=C(Nc1ccc(Cl)cc1)NS(=O)(=O)c1c(-c2ccccc2)oc2ccccc2c1=O"
  Uom: "%"
  growth inhibition: 99
- Molecule: "O=c1[nH]c(C(F)(F)F)c(F)c(=O)[nH]1"
  Uom: "%"
  growth inhibition: -2
- Molecule: "O=C1c2c(F)c(F)c(F)c(F)c2SC2=NCCN12"
  Uom: "%"
  growth inhibition: 99
- Molecule: "C#CCNC(C)(C)C"
  Uom: "%"
  growth inhibition: 4
- Molecule: "O=C1C(Cl)=C(Cl)C(=O)C2=C1CC(Cl)C(Cl)C2 (stereo not drawn)"
  Uom: "%"
  growth inhibition: 98
- Molecule: "C/C=C/c1cc2c(cc1O)CC[C@@H]1[C@@H]2CC[C@]2(C)[C@@H](O)CC[C@@H]12"
  Uom: "%"
  growth inhibition: 97
- Molecule: "CC(C)(C)N1OC2(c3ccccc3)OC3N(C(C)(C)C)OC4(c5ccccc5)OC1C2(c1ccccc1)C34c1ccccc1 (stereo not drawn)"
  Uom: "%"
  growth inhibition: 99
- Molecule: "C#CCCCCCOC(=O)c1cc([N+](=O)[O-])cc([N+](=O)[O-])c1"
  Uom: "%"
  growth inhibition: 99
- Molecule: "Cc1ccc(N2C(N)=C(C#N)C(C#N)(C#N)C2c2ccccc2)cc1 (stereo not drawn)"
  Uom: "%"
  growth inhibition: 70
- Molecule: "CCOC(=O)C1=C(C)NC(C)=C(C(=O)OCC)C1c1ccnc2ccccc12"
  Uom: "%"
  growth inhibition: 94
- Molecule: "COc1cc(/C=N/NC(=S)Nc2ccccc2)ccc1O"
  Uom: "%"
  growth inhibition: 13
- Molecule: "CC1CCC2(NC1)OC1CC3[C@@H]4CC=C5C=CCC[C@]5(C)C4CC[C@]3(C)C1C2C (stereo partly drawn)"
  Uom: "%"
  growth inhibition: 97

* * *

- Measurement Description: NCI Yeast Anticancer Drug Screen. Data for the bub3 strain (AID 167)
- Condition Parameters: S. cerevisiae bub3 mutant strain, at 50.0 µM (retest, dose inferred, filed as 5.0), stronger effect = higher value
About 79,000 compounds went through this panel and 15% of them were active in at least one assay; those are over-represented in the sample as a whole.
Tick Yes if growth inhibition is 30% or greater. Tick No if growth inhibition is less than 30%.

- Compound: "O=C(OCc1ccc2c(c1)OCO2)c1ccc(Cl)cc1"
  Discrete Label: "Yes"
- Compound: "O=C(NC(Cc1ccc(I)cc1)C(=O)O)c1cccc(Br)c1 (configuration not stated)"
  Discrete Label: "No"
- Compound: "Ic1[nH]c(I)c(I)c1I"
  Discrete Label: "Yes"
- Compound: "COC(=O)/C=C(\\C)Nc1ccc(Cc2ccc(Br)cc2)cc1"
  Discrete Label: "Yes"
- Compound: "COc1ccc2ccnc(Cc3ccc(OCc4ccccc4)c(OC)c3)c2c1"
  Discrete Label: "No"
- Compound: "O=C(OC1=C(Br)C(=O)c2ccccc2C1=O)c1ccccc1"
  Discrete Label: "Yes"
- Compound: "CC(=O)N[C@H]1CC[C@H]2[C@@H]3CCC4=CC(=O)CC[C@]4(C)[C@H]3CC[C@]12C"
  Discrete Label: "Yes"
- Compound: "O=c1[nH]c2c([N+](=O)[O-])cc(Cl)cc2nc1/C=C(\\O)c1ccc(Cl)cc1"
  Discrete Label: "Yes"
- Compound: "C[n+]1c(-c2ccc(/C=N\\Nc3nnc(S)n3/N=C/c3ccc(-c4cn5ccccc5[n+]4C)cc3)cc2)cn2ccccc21"
  Discrete Label: "Yes"
- Compound: "CCOC(=O)CC1(C)C(=O)CCCC1=O"
  Discrete Label: "No"
- Compound: "CCCC(=O)Oc1c(Br)cc(Br)cc1Br"
  Discrete Label: "No"
- Compound: "C=CNC(=O)Oc1ccccc1"
  Discrete Label: "No"
- Compound: "CC1(c2ccc(O)cc2)CC(C)(c2ccc(O)cc2)C1 (configuration not stated)"
  Discrete Label: "Yes"
- Compound: "CC(=O)N1C(c2[nH]c3ccccc3c2Cc2ccccc2)CCN1c1ccccc1 (configuration not stated)"
  Discrete Label: "Yes"
- Compound: "O=[N+]([O-])/C=C/c1cc2ccccc2[nH]1"
  Discrete Label: "Yes"
- Compound: "CCCCCNC(=O)C1C(=O)N(CCCCC)C(=O)/C1=N\\N (configuration not stated)"
  Discrete Label: "No"
- Compound: "CCCCCNC(=O)c1ccc(Cl)c(Cl)c1"
  Discrete Label: "Yes"
- Compound: "CC(C)(COC(=O)Nc1cccc(Cl)c1)[N+](=O)[O-]"
  Discrete Label: "No"
- Compound: "[O-]c1c2cc(-[n+]3c(-c4ccccc4)cc(-c4ccccc4)cc3-c3ccccc3)cc1CO[C@@H](c1ccccc1)[C@H](c1ccccc1)OCc1cccc(n1)CO[C@@H](c1ccccc1)[C@H](c1ccccc1)OC2"
  Discrete Label: "Yes"
- Compound: "Cc1nn(C(=S)S)c(C)c1N=Nc1cccc(F)c1"
  Discrete Label: "No"
- Compound: "CCOC(=S)SSC(=S)NCCNC(=S)SSC(=S)OCC"
  Discrete Label: "Yes"
- Compound: "O/N=C(/Cc1nc2cc(Cl)c(Cl)cc2nc1C/C(=N/O)c1ccncc1)c1ccncc1"
  Discrete Label: "Yes"
